Reference source for all entries: patent US4003936A

# targetOrTestSystem: tyrosine hydroxylase (Bos taurus, UniProt P17289)
# Sequence (P17289 1-491): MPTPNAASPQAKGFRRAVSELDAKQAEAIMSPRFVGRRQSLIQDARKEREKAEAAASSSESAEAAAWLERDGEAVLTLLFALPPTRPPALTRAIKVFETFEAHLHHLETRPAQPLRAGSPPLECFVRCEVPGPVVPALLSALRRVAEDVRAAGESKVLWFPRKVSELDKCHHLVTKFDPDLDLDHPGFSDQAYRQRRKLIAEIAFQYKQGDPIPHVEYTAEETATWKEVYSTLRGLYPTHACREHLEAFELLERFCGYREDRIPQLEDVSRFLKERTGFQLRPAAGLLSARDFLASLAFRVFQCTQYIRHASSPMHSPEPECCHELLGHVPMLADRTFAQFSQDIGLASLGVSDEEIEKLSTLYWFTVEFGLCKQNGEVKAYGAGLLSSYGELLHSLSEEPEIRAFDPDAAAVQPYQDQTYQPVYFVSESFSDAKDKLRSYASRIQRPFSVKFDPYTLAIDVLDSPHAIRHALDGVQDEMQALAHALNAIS
# testProtocol: inhibition of tyrosine hydroxylase (method of J. Antibiot. 23, 514 (1970))
# Format: biochemical
# testConditions: at 100 meg. (figure after the slash in the cell); read-out: Inhibition of the product (1a) to tyrosine hydroxylase
Hi, to clarify the labels: True covers inhibition at 0.1 mg from 40% upward, False covers anything below 40%.

O=C1CCC(=O)C1C(=O)CCc1ccccc1Cl
False

Could you tell me if the measured inhibition at 0.1 mg of O=C1CCC(=O)C1C(=O)CCc1ccccc1 [Example 35, 2-hydrocinnamoyl-1,3-cyclopentanedione] reaches 40% or more? True

Could you tell me if the measured inhibition at 0.1 mg of `O=C1CCC(=O)C1C(=O)CCc1ccccc1O` reaches 40% or more? True

Could you tell me if the measured inhibition at 0.1 mg of `COc1ccc(CCC(=O)C2C(=O)CCC2=O)cc1` reaches 40% or more? False

Could you tell me if the measured inhibition at 0.1 mg of `O=C1CCC(=O)C1C(=O)CCc1ccc(Cl)cc1` reaches 40% or more? True
